- system.name: T1, human CD26-derived 13 mer peptide 118 (human)
- T1 peptide: ATSIQITAPASML
- assay.text: peptide microarray

{"binder": "rhuMAb 420 (antibody, human IgG1, V domains shown, X420 VH and X380 VL with human IgG1 and human kappa constant regions; also called X420 (IgG1)) VH: EVQLVESGGGVKQPGETLRLTCTASGFSLSTYGVHWVRQAPGKGLEWVGVIWGDGRTDYDAAFMSRVTISKDTSKSTVYLQMNSLRAEDTAVYYCMRNRHDWFDYWGQGTTVTVSS VL: EIEMTQSPSSLSVSAGERATISCSASQDIRNSLNWYQQKPGQAPRLLIYYSSNLHTGVPARFSGSGSGTDFTLTISRLEPEDVAIYYCQQSNKLPLTFGSGTKVEIKR", "Mean Signal Value": 0}
{"binder": "rhuMAb 409 (antibody, human IgG1, V domains shown, CM03 VH and VL with human IgG1 heavy chain constant region and human kappa constant region; also called X409) VH: QVKLQESGPGLVQPSQTLSITCTVSGFSLTTYGVHWVRQSPGKGLEWLGVIWGGGRTDYDAAFISRLSISKDNSKSQVFFKMNSLQANDTAIYYCVRNRHDWFDYWGQGTTVTVSS VL: DIQMTQSPSSLSASLGDRVTITCSASQGIRNSLNWYQQKPDGAVKLLIYYSSNLHSGVPSRFSGSGSGTDFSLTISNLEPEDIATYYCQQSIKLPFTFGSGTKLEIKR", "Mean Signal Value": 0}
{"binder": "rhuMAb 411 (antibody, human IgG1, kappa, V domains shown, also called X411) VH: EVQLVESGAGVKQPGGTLRLTCTASGFSLTTYGVHWVRQAPGKGLEWVGVIWGDGRTDYDAAFMSRVTISKDTSKSTVYLQMNSLRAEDTAVYYCMRNRHDWFDYWGQGTTVTVSS VL: DILLTQSPSSLSATPGERATITCRASQGIRNNLNWYQQKPGQAPRLLIYYSSNLQSGVPSRFSGSGSGTDFTLTISRLQPEDVAAYYCQQSIKLPFTFGSGTKVEIKR", "Mean Signal Value": 0}
